- assay-remarks: adipocyte viability effects, profiling panel, cell-based, 3T3-L1 adipocytes, calcein-AM fluorescence, 48 h, basal (AID 1163); also: test concentration not given here
- experimental-setup: 3T3-L1 adipocytes viability, higher = more signal
measure-name: z-score
Hey, just send me the number, nothing else.

1. CC(C)[Si]1(C(C)C)O[C@@H](c2ccccc2)c2cc(-c3ccc(-c4ccc(Cl)c(Cl)c4)o3)nc(-c3ccccc3)c21    -0.277

Ask: Fill in reported z-score for this entry: COC(=O)[C@@]1(CCS(=O)(=O)c2ccccc2)N=C(c2ccc(OCCCO)cc2)O[C@H]1c1ccccc1CN=[N+]=[N-]
Result: -0.688

Ask: Look up and state reported z-score for C=C(C)[C@@H]1CC=C(C(O)C2C=CC3C(=O)N(C)C(=O)C3N2Nc2ccccc2)CC1 (some centres undefined)
Result: -1.16

Ask: Provide measured z-score value, entry: O=C1C[C@@](C(=O)NCC(F)(F)F)(c2ccc([N+](=O)[O-])cc2)[C@@H](c2ccc(CO)cc2I)N1C1CCCCC1
Result: 0.665

Ask: Return the recorded z-score value; entry: COC(=O)[C@@]1(Cc2ccc(OC)cc2)[C@H]2c3cc(C(=O)N4CCCC4)n(CCN4CNCC4=O)c3C[C@H]2CN1C(=O)c1ccccc1
Result: 0.0334

Ask: Let me know recorded z-score for CN1C(=O)C2C=CC(C(O)C3CC=CCC3)N(N(c3ccccc3)c3ccccc3)C2C1=O (centres undefined) , thanks.
Result: -1.9

====

- System: Sam68 (KHDRBS1)
- assay-remarks: Sam68 small-molecule binders, primary screen, biochemical, small-molecule microarray, 635 nm fluorescence (AID 1125);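 also: score merges 667 nm channel intensity with signal to noise over triplicate slides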
- experimental-setup: small-molecule microarray binding, higher = more signal
measure-name: composite z-score
Just the number, please.

Example results:
1. C=CCOC(=O)[C@@H]1[C@H]2C(=O)O[C@H](c3ccccc3)[C@H](c3ccccc3)N2[C@H](c2ccc(OCCOC(=O)[C@@H]3C[C@@H]4C(=O)NCC(=O)N4[C@@H]3c3ccc(O)cc3)cc2)[C@@]12C(=O)Nc1ccc(I)cc12    1.31
2. NCCCCCNC(=O)[C@@H]1C[C@@H]2C(=O)N[C@@H](Cc3ccccc3)C(=O)N2[C@@H]1c1ccc(O)cc1    1.24

Ask: Return value of composite z-score for input NC(=O)NCC#Cc1ccc2c(c1)[C@]1(C(=O)N2)[C@H](C(N)=O)[C@H]2C(=O)O[C@H](c3ccccc3)[C@H](c3ccccc3)N2[C@@H]1c1ccc(O)cc1 , no commentary.
Result: 0.652

Ask: Could you please provide reported composite z-score for C=CCOC(=O)[C@H]1[C@@H]2C(=O)O[C@@H](c3ccccc3)[C@@H](c3ccccc3)N2[C@@H](c2ccc(OCCOC(=O)[C@H]3C[C@H]4C(=O)N[C@@H](CCCCNC(C)=O)C(=O)N4[C@H]3c3ccc(O)cc3)cc2)[C@]12C(=O)Nc1ccc(I)cc12 ? Thanks!
Result: 1.22

Ask: Entry CN(C)CCCCCCNC(=O)[C@H]1C[C@H]2C(=O)N3CCC[C@H]3C(=O)N2[C@H]1c1ccc(O)cc1 needs its composite z-score filled in; supply it.
Result: 1.34

====

- System: Human papillomavirus type 1a E7 protein (residues 1-88)
- assay-remarks: HPV1a E7 small-molecule binders, primary screen, biochemical, small-molecule microarray, residues 1-88, 635 nm (AID 1129)
- experimental-setup: small-molecule microarray binding, fluorescence 635 nm; higher = more signal
In this section we review reported composite z-score values for a set of molecules.
Answer as a number with no unit attached.

Examples with answers:
1) CC1(C)[C@@H]2CC(C(O)C3C=CC4C(=O)N(Cc5ccccc5)C(=O)C4N3n3cnnc3)=C[C@H]1C2 (stereo partly drawn)    1.19
2) NC(=O)NCC#Cc1ccc2c(c1)[C@]1(C(=O)N2)[C@H](c2ccccc2OCCO)N2[C@H](c3ccccc3)[C@H](c3ccccc3)OC(=O)[C@H]2[C@@H]1C(=O)Nc1nc2ccccc2s1    0.844

Could you now consider this next molecule?
Ask: Identify the reported composite z-score for the following entry. COC(=O)[C@@]1(Cc2ccc(F)cc2)[C@H]2c3cc(C(=O)N4CCCC4)n(CCCNc4ncc(C(F)(F)F)cc4Cl)c3C[C@H]2CN1C(=O)c1ccccc1
Result: 1.08

These measurements were taken from PubChem BioAssay.
